# System: ivy-leaved morning glory (Ipomoea hederacea)
# protocol_text: Test G Pre-Emergence Protocol
# Type: in vivo
# experimental_setup: Ipomoea, pre-emergence, 312 h, 250 g ai/ha, evaluated after 13 days, read-out: Morningglory, Ivy-leaved damage rating (100=total damage to plant; 0=no damage to plant)
Entries and their pest or weed control at 250 g/ha values follow.

- compound: "CN1C[C@H](c2ccc(Cl)cc2)[C@@H](C(=O)Nc2ccc(F)nc2F)C1=O"
  pest or weed control at 250 g/ha / %: 80
- compound: "Cc1c(F)cccc1NC(=O)[C@@H]1C(=O)N(C)C[C@H]1c1cccc(OCC(F)(F)F)c1 (racemic)"
  pest or weed control at 250 g/ha / %: 20
- compound: "Cc1cnc(NC(=O)[C@@H]2C(=O)N(C)C[C@H]2c2ccc(C(F)(F)F)cc2)nn1 (racemic)"
  pest or weed control at 250 g/ha / %: 0
- compound: "Cc1c(F)ccc(NC(=O)[C@@H]2C(=O)N(C)C[C@H]2c2ccc(C(F)(F)F)cc2)c1F (racemic)"
  pest or weed control at 250 g/ha / %: 50
- compound: "CN1C[C@H](c2ccc(C(F)(F)F)cc2)[C@@H](C(=O)Nc2ccc[n+]([O-])c2F)C1=O (racemic)"
  pest or weed control at 250 g/ha / %: 0
- compound: "CN1C[C@@H](c2ccc(C(F)(F)F)cc2)[C@H](C(=O)Nc2ccncc2Cl)C1=O (racemic)"
  pest or weed control at 250 g/ha / %: 0
- compound: "COc1ccc(C2CN(C)C(=O)C2C(=O)Nc2cccc(F)c2F)cc1C (stereo not shown)"
  pest or weed control at 250 g/ha / %: 10
- compound: "CCc1nc(NC(=O)[C@@H]2C(=O)N(C)C[C@H]2c2ccc(C(F)(F)F)cc2)n[nH]1 (racemic)"
  pest or weed control at 250 g/ha / %: 0
- compound: "COc1ccc(CNC(=O)[C@H]2C(=O)N(C)C[C@@H]2c2ccc(C(F)(F)F)cc2)c(OC)c1 (racemic)"
  pest or weed control at 250 g/ha / %: 0
- compound: "CN1C[C@H](c2ccc(C(F)(F)F)cc2)[C@@H](C(=O)Nc2ncccc2[N+](=O)[O-])C1=O (racemic)"
  pest or weed control at 250 g/ha / %: 0
- compound: "CCOc1cc(C2CN(C)C(=O)C2C(=O)Nc2cccc(F)c2F)ccc1OC (stereo not shown)"
  pest or weed control at 250 g/ha / %: 0
- compound: "CN1C[C@@H](c2ccc(C(F)(F)F)cc2)[C@H](C(=O)Nc2sccc2C#N)C1=O (racemic)"
  pest or weed control at 250 g/ha / %: 0
- compound: "CN1C[C@@H](c2ccc(C(F)(F)F)cc2)[C@H](C(=O)Nc2cc(F)c(F)c(F)c2F)C1=O (racemic)"
  pest or weed control at 250 g/ha / %: 10
- compound: "CCS(=O)(=O)c1ccccc1NC(=O)[C@H]1C(=O)N(C)C[C@@H]1c1ccc(C(F)(F)F)cc1 (racemic)"
  pest or weed control at 250 g/ha / %: 0
- compound: "CN1C[C@H](c2ccc(C#N)c(C(F)(F)F)c2)[C@@H](C(=O)Nc2ccccc2S(C)(=O)=O)C1=O (racemic)"
  pest or weed control at 250 g/ha / %: 0
- compound: "COc1c(F)cc(C2CN(C)C(=O)C2C(=O)Nc2cccc(F)c2F)cc1Cl (stereo not shown)"
  pest or weed control at 250 g/ha / %: 20
- compound: "COc1ccc([C@H]2CN(C)C(=O)[C@@H]2C(=O)Nc2ccccc2F)c(C)c1 (racemic)"
  pest or weed control at 250 g/ha / %: 20
- compound: "COc1cccc(NC(=O)[C@@H]2C(=O)N(C)C[C@H]2c2ccc(C(F)(F)F)cc2)n1 (racemic)"
  pest or weed control at 250 g/ha / %: 0
- compound: "CN1C[C@H](c2ccc(C(F)(F)F)cc2)[C@@H](C(=O)Nc2cccc3c2S(=O)(=O)CC3)C1=O (racemic)"
  pest or weed control at 250 g/ha / %: 0

---

# Tested on: barnyardgrass (Echinochloa crus-galli)
# protocol_text: Test A postemergence
# Type: in vivo
# experimental_setup: 125 g ai/ha, postemergence; visual rating after approx. 10 d, 0 to 100 scale (0 no effect, 100 complete control)
Entries and their Plant response rating, Barnyardgrass values follow.
property_label: Plant response rating, Barnyardgrass

- molecule: "CN1CC(c2c(F)cccc2F)C(C(=O)Nc2cccc(F)c2F)C1=O (stereo not shown) [Compound 547]"
  result: 70
- molecule: "CC(C)Oc1cccc(C2CN(C)C(=O)C2C(=O)Nc2ccccc2F)c1 (stereo not shown) [Compound 650]"
  result: 90
- molecule: "CN1CC(c2cccc(C(F)(F)F)c2)C(C(=O)Nc2ccccc2S(C)(=O)=O)C1=O (stereo not shown) [Compound 637]"
  result: 90
- molecule: "CN1CC(c2cccc(C(F)(F)F)c2)C(C(=O)Nc2cccc(F)c2F)C1=O (stereo not shown) [Compound 636]"
  result: 90

---

# System: blackgrass (Alopecurus myosuroides)
# protocol_text: Test A postemergence
# Type: in vivo
# experimental_setup: Alopecurus myosuroides, post-emergence, 240 h, 125 g ai/ha, postemergence; visual injury after approximately 10 d; 0 to 100 scale (0 no effect, 100 complete control); read-out: Plant response rating, Blackgrass
property_label: pest or weed control at 125 g/ha (%)

- molecule: "Cc1cc([C@H]2CNC(=O)[C@@H]2C(=O)Nc2ccccc2F)ccc1Cl"
  property_label: "pest or weed control at 125 g/ha"
  scale_unit: "%"
  result_number: 40
- molecule: "C/C=C/C1CNC(=O)C1C(=O)Nc1cccc(F)c1F (centres unmarked)"
  property_label: "pest or weed control at 125 g/ha"
  scale_unit: "%"
  result_number: 0
- molecule: "C=CCN1C[C@H](c2ccc(OC)c(F)c2)[C@@H](C(=O)Nc2ccccc2S(C)(=O)=O)C1=O"
  property_label: "pest or weed control at 125 g/ha"
  scale_unit: "%"
  result_number: 0
- molecule: "Cc1cc([C@H]2CNC(=O)[C@@H]2C(=O)Nc2ccccc2F)ccc1F"
  property_label: "pest or weed control at 125 g/ha"
  scale_unit: "%"
  result_number: 0
- molecule: "CSc1ccccc1NC(=O)[C@H]1C(=O)N(C)C[C@@H]1c1cc(C)c(C)c(C)c1"
  property_label: "pest or weed control at 125 g/ha"
  scale_unit: "%"
  result_number: 40
- molecule: "COc1cc([C@H]2CN(C)C(=O)[C@@H]2C(=O)Nc2ccccc2F)ccc1C(F)(F)F"
  property_label: "pest or weed control at 125 g/ha"
  scale_unit: "%"
  result_number: 0
- molecule: "CS(=O)(=O)c1ccccc1NC(=O)[C@H]1C(=O)NC[C@@H]1c1cccc2c1OC(F)(F)O2"
  property_label: "pest or weed control at 125 g/ha"
  scale_unit: "%"
  result_number: 0
- molecule: "Cc1ccc([C@H]2CNC(=S)[C@@H]2C(=O)Nc2cccc(F)c2C)cc1C"
  property_label: "pest or weed control at 125 g/ha"
  scale_unit: "%"
  result_number: 0
- molecule: "CSc1ccccc1NC(=O)[C@H]1C(=O)N(C)C[C@@H]1c1ccc(C)c(C)c1"
  property_label: "pest or weed control at 125 g/ha"
  scale_unit: "%"
  result_number: 0
- molecule: "Cc1cc([C@H]2CNC(=O)[C@@H]2C(=O)Nc2ccc(F)cc2F)ccc1Br"
  property_label: "pest or weed control at 125 g/ha"
  scale_unit: "%"
  result_number: 0
- molecule: "CN1C[C@H](c2ccc3c(c2)CCC3)[C@@H](C(=O)Nc2ccccc2S(C)(=O)=O)C1=O"
  property_label: "pest or weed control at 125 g/ha"
  scale_unit: "%"
  result_number: 20
- molecule: "CSc1ccccc1NC(=O)[C@H]1C(=S)NC[C@@H]1c1ccc(C)c(C)c1"
  property_label: "pest or weed control at 125 g/ha"
  scale_unit: "%"
  result_number: 0
- molecule: "CN1C[C@H](c2ccc(C(F)(F)F)cc2)[C@@H](C(=O)Nc2ccc(F)c(F)c2F)C1=O"
  property_label: "pest or weed control at 125 g/ha"
  scale_unit: "%"
  result_number: 40
- molecule: "Cc1cc([C@H]2CN(C)C(=O)[C@@H]2C(=O)Nc2ccc(F)c(F)c2F)ccc1F"
  property_label: "pest or weed control at 125 g/ha"
  scale_unit: "%"
  result_number: 60

---

# Test system: pigweed (Amaranthus retroflexus)
# protocol_text: Test A preemergence
# Format: in vivo
# experimental_setup: Amaranthus retroflexus, pre-emergence, 240 h, 500 g ai/ha, preemergence; visual injury rating about 10 d after treatment, 0 to 100 scale (0 no effect, 100 complete control); read-out: Pigweed plant response rating
Entries and their pest or weed control at 500 g/ha values follow.

- smiles: "Cc1cc([C@H]2CN(C)C(=O)[C@@H]2C(=O)Nc2ccccc2F)cc(C)c1Br"
  scale_unit: "%"
  pest or weed control at 500 g/ha: 30
- smiles: "CN1C[C@H](c2cc(F)cc(F)c2)[C@@H](C(=O)Nc2ncccc2Cl)C1=O"
  scale_unit: "%"
  pest or weed control at 500 g/ha: 0
- smiles: "Cc1cc([C@H]2CNC(=O)[C@@H]2C(=O)Nc2ccccc2S(C)(=O)=O)ccc1C(F)(F)F"
  scale_unit: "%"
  pest or weed control at 500 g/ha: 20
- smiles: "CCOc1cccc([C@H]2CN(C)C(=O)[C@@H]2C(=O)Nc2ccc(F)cc2F)c1"
  scale_unit: "%"
  pest or weed control at 500 g/ha: 30
- smiles: "Cc1cc([C@H]2CN(C)C(=O)[C@@H]2C(=O)Nc2ccccc2F)ccc1Cl"
  scale_unit: "%"
  pest or weed control at 500 g/ha: 20
- smiles: "CC(=O)Oc1ccc(F)c(NC(=O)[C@H]2C(=O)N(C)C[C@@H]2c2cc(F)cc(F)c2)c1"
  scale_unit: "%"
  pest or weed control at 500 g/ha: 0
- smiles: "CCc1cccc([C@H]2CCNC(=O)[C@@H]2C(=O)Nc2cccc(F)c2F)c1"
  scale_unit: "%"
  pest or weed control at 500 g/ha: 0
